Test system: NCI-H661
run_description: relative viability (nuclei count vs DMSO), 5 days (fraction); higher = more cells survive
assay_conditions: first compound 0.005 µM
Listed below: relative viability values for each entry.

molecule	assayed_target	relative viability
CC1(C)CCC(c2ccc(Cl)cc2)=C(CN2CCN(c3ccc(C(=O)NS(=O)(=O)c4ccc(N[C@H](CCN5CCOCC5)CSc5ccccc5)c(S(=O)(=O)C(F)(F)F)c4)cc3)CC2)C1 [Navitoclax] + Nc1ncn([C@H]2C[C@H](O)[C@@H](CO)O2)c(=O)n1 [Decitabine] (partner 2 µM)	NCI-H661	0.556
CC1(C)CCC(c2ccc(Cl)cc2)=C(CN2CCN(c3ccc(C(=O)NS(=O)(=O)c4ccc(N[C@H](CCN5CCOCC5)CSc5ccccc5)c(S(=O)(=O)C(F)(F)F)c4)cc3)CC2)C1 [Navitoclax] + O=C(c1cc(Cc2n[nH]c(=O)c3ccccc23)ccc1F)N1CCN(C(=O)C2CC2)CC1 [Olaparib] (partner 8 µM)	NCI-H661	0.751
CC1(C)CCC(c2ccc(Cl)cc2)=C(CN2CCN(c3ccc(C(=O)NS(=O)(=O)c4ccc(N[C@H](CCN5CCOCC5)CSc5ccccc5)c(S(=O)(=O)C(F)(F)F)c4)cc3)CC2)C1 [Navitoclax] + Cc1nc(Nc2ncc(C(=O)Nc3c(C)cccc3Cl)s2)cc(N2CCN(CCO)CC2)n1 [Dasatinib] (partner 0.075 µM)	NCI-H661	0.621
CC1(C)CCC(c2ccc(Cl)cc2)=C(CN2CCN(c3ccc(C(=O)NS(=O)(=O)c4ccc(N[C@H](CCN5CCOCC5)CSc5ccccc5)c(S(=O)(=O)C(F)(F)F)c4)cc3)CC2)C1 [Navitoclax] + C[C@@H](Oc1cc(-c2cnn(C3CCNCC3)c2)cnc1N)c1c(Cl)ccc(F)c1Cl [Crizotinib] (partner 1 µM)	NCI-H661	1.12
CC1(C)CCC(c2ccc(Cl)cc2)=C(CN2CCN(c3ccc(C(=O)NS(=O)(=O)c4ccc(N[C@H](CCN5CCOCC5)CSc5ccccc5)c(S(=O)(=O)C(F)(F)F)c4)cc3)CC2)C1 [Navitoclax] + CC(=O)c1c(C)c2cnc(Nc3ccc(N4CCNCC4)cn3)nc2n(C2CCCC2)c1=O [Palbociclib] (partner 0.5 µM)	NCI-H661	0.426
